Target: isolated porcine cardiac ventricular myocardium (cardiac) (Sus scrofa, UniProt P79293)
Construct: isolated porcine cardiac ventricular myocardium (cardiac); from tissue; host or cells: porcine cardiac ventricle
Sequence (P79293 whole entry): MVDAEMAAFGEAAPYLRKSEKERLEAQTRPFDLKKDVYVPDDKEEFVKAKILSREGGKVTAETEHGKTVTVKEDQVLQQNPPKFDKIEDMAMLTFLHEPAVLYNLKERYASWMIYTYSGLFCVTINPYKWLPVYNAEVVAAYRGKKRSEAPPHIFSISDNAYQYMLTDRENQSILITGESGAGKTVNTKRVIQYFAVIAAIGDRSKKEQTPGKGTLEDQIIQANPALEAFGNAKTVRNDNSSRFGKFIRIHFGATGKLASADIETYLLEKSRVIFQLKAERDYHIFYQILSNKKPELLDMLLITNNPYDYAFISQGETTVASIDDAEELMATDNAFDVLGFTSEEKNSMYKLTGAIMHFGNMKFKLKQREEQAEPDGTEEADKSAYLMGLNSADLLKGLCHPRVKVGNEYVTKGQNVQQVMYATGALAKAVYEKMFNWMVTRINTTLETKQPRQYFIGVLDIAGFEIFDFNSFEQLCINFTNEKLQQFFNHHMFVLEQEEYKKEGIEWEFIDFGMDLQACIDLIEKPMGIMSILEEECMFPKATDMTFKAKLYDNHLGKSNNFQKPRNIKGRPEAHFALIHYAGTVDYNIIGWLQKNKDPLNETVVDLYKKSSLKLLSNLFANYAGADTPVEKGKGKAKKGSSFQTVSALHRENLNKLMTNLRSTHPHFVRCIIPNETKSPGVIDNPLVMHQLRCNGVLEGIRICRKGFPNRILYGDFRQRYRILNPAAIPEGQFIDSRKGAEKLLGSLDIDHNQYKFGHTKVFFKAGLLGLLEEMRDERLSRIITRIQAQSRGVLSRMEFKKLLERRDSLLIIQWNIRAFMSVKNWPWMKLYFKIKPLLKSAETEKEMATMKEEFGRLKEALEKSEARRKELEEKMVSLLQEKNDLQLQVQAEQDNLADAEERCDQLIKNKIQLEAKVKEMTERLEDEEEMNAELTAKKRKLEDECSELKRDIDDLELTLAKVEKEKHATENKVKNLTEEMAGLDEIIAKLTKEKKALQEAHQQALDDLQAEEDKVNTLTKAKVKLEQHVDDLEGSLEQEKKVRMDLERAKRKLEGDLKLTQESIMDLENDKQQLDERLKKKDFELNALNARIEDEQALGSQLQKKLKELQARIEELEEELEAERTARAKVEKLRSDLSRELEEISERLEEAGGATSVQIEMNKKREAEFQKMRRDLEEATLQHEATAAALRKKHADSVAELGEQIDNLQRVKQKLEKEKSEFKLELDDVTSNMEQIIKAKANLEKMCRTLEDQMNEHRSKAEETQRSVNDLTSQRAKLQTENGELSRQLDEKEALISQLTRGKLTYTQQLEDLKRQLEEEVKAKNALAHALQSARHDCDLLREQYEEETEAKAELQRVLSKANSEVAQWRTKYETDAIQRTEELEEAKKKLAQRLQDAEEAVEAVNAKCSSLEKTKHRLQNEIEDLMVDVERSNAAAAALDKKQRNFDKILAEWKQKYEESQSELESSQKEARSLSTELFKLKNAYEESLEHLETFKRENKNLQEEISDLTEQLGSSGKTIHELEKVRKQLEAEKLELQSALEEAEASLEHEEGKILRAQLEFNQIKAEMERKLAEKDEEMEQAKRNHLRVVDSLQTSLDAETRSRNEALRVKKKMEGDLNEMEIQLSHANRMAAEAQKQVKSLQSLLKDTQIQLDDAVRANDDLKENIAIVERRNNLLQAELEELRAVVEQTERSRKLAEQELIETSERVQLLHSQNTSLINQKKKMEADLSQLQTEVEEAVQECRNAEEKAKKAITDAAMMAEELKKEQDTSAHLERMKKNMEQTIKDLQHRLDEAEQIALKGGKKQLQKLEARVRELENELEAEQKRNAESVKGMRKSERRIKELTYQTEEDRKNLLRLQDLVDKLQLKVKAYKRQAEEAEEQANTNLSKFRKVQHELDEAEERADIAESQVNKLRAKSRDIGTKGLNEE
Assay: actomyosin steady state ATPase measurement, cardiac myosin
Format: biochemical
Conditions: concentration required for semi-maximal inhibition of ATPase
From the text: […]; (ii) the concentration required for semi-maximal inhibition.
Catalogue of molecules with associated IC50
Give the value, in units of µM, as a plain number.

Solved entries:
CN(C)c1ccc(N2CC[C@@]3(O)C(=O)c4ccsc4N=C23)cc1 :: 35
Cc1cc2c(s1)N=C1N(c3ccc(CC#N)cc3)CCC1(O)C2=O (stereo not shown) :: 0.73
COc1ccc(N2CC[C@@]3(O)C(=O)c4ccsc4N=C23)cn1 :: 4.1

Input line: Would you kindly share the measured IC50 for `N#CCc1ccc(N2CC[C@@]3(O)C(=O)c4ccsc4N=C23)cc1` ?
Output line: 5.6

Input line: Would you kindly share the measured IC50 for O=C1c2sccc2N=C2N(c3ccccc3)CCC12O (stereo not shown) ?
Output line: 8

Input line: Would you kindly share the measured IC50 for Cc1cc2c(s1)N=C1N(c3ccc(N(C)C)cc3)CCC1(O)C2=O (stereo not shown) ?
Output line: 9

Input line: Would you kindly share the measured IC50 for Cc1cc2c(s1)N=C1N(c3ccc(C#N)cc3)CCC1(O)C2=O (stereo not shown) ?
Output line: 1.7

Input line: Would you kindly share the measured IC50 for Cc1ccc(N2CCC3(O)C(=O)c4ccncc4N=C23)cc1 (stereo not shown) ?
Output line: 31

Input line: Would you kindly share the measured IC50 for Cc1cc2c(s1)N=C1N(c3cccs3)CCC1(O)C2=O (stereo not shown) ?
Output line: 1.4
